B1: HDV Ribozyme (parent)
chain: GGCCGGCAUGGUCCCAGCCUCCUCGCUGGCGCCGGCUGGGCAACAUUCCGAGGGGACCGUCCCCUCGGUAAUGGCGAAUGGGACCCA

# Variants of: B1
# protocol.summary: self-cleavage, relative activity (ratio to wild type); higher = more cleavage; co-transcriptional
Each entry gets 0 (no) if its self-cleavage stays under 0.4, and 1 (yes) if its self-cleavage is 0.4 or above.

### Prompt State whether the measured self-cleavage reaches 0.4, counting equality as reaching it, for GGGCGGCAUGGUCCCAGCCUCCUCGCUGGCGCCGGCUGGGCAACAUUCCGAGGGGACCGUCCCCUCGGUAAUGGCGAAUGGCACCCA [C3G G82C]
### Response 0 (no)

### Prompt State whether the measured self-cleavage reaches 0.4, counting equality as reaching it, for GGCCGGCAUGGUCCCAGCCUCCUCGCUGGCGCCGGCUGGGAAACAUUCCGAGGGGACCGUCCCCUCGGUAAUGGUGAAUGGGACCCA [C41A C75U]
### Response 0 (no)

### Prompt State whether the measured self-cleavage reaches 0.4, counting equality as reaching it, for GGCCGGCAAGGUCCCAGCCUCCUCGCUGGCGCCGGCUGAGCAACAUUCCGAGGGGACCGUCCCCUCGGUAAUGGCGAAUGGGACCCA [U9A G39A]
### Response 1 (yes)

### Prompt State whether the measured self-cleavage reaches 0.4, counting equality as reaching it, for GGCCGGCAUGGUCCCAGCCUCCUGGCUGGCGCCGGCUGGGCAACAUUCCGAGGGGACCGUCCCCUCAGUAAUGGCGAAUGGGACCCA [C24G G67A]
### Response 0 (no)

### Prompt State whether the measured self-cleavage reaches 0.4, counting equality as reaching it, for GGCCGGCAUGGUCCCAGCCUCCUCGCUGGCGCCGGCUGGGCAACAUUUCGAGGGGACCGUCCCCUCGGUAAUGGCGAAUGGGGCCCA [C48U A83G]
### Response 1 (yes)

### Prompt State whether the measured self-cleavage reaches 0.4, counting equality as reaching it, for UGCCGGCAUGGUCCCAGCCUCCUCGAUGGCGCCGGCUGGGCAACAUUCCGAGGGGACCGUCCCCUCGGUAAUGGCGAAUGGGACCCA [G1U C26A]
### Response 0 (no)

### Prompt State whether the measured self-cleavage reaches 0.4, counting equality as reaching it, for GGCCGGCAUGGUCCCAGCCUCCUCGAUGGCGCCGGCUGGGCAACAUUCCUAGGGGACCGUCCCCUCGGUAAUGGCGAAUGGGACCCA [C26A G50U]
### Response 1 (yes)

### Prompt State whether the measured self-cleavage reaches 0.4, counting equality as reaching it, for GGCCGGCAUGGUCCCAGCCUUCUCGCUGGCGCCGGCUGGGCAACAUUCCGAGGGGACCGUCCCCUCGGUAAUGGCGAAUGGGACACA [C21U C85A]
### Response 0 (no)

### Prompt State whether the measured self-cleavage reaches 0.4, counting equality as reaching it, for GGCGGGCAUGGUCCCAGCCUCCUCGCUGGCGCCGGCUGGGCAACAUUCCGAGGGGACCGUCCCCUCGGUAAUGGCGAAAGGGACCCA [C4G U79A]
### Response 0 (no)

### Prompt State whether the measured self-cleavage reaches 0.4, counting equality as reaching it, for GGCCGGCAUGGUCCCAGCCUCCUCGCUGGCACCGGCUGGGCAACAUUCCGAGUGGACCGUCCCCUCGGUAAUGGCGAAUGGGACCCA [G31A G53U]
### Response 0 (no)

### Prompt State whether the measured self-cleavage reaches 0.4, counting equality as reaching it, for GGCCGGCAUGGUCCGAGCCUCCUCGCUGGCGCCGGCUGCGCAACAUUCCGAGGGGACCGUCCCCUCGGUAAUGGCGAAUGGGACCCA [C15G G39C]
### Response 0 (no)

### Prompt State whether the measured self-cleavage reaches 0.4, counting equality as reaching it, for GGCCGGCAUGGUCCCAGCCUCCUCGCAGGCGCCGGCUGGGCAACAUUCCGAGGGGACCGUCCCCUCGAUAAUGGCGAAUGGGACCCA [U27A G68A]
### Response 1 (yes)

### Prompt State whether the measured self-cleavage reaches 0.4, counting equality as reaching it, for GGCCGGCAUGGUCCCAGCCUCCUCGCUGGCGCCGGCUGGGCAACACUCCGAGAGGACCGUCCCCUCGGUAAUGGCGAAUGGGACCCA [U46C G53A]
### Response 1 (yes)

### Prompt State whether the measured self-cleavage reaches 0.4, counting equality as reaching it, for GGCCAGCAUGGUCCCAGCCUCCUCGCUGGCGCCGGCUGGGCACCAUUCCGAGGGGACCGUCCCCUCGGUAAUGGCGAAUGGGACCCA [G5A A43C]
### Response 0 (no)

### Prompt State whether the measured self-cleavage reaches 0.4, counting equality as reaching it, for GGCCGGCAUGGUCCCGGCCUCCUCGCUGGCGCCGGCUGGGCAACAUUCCGAGGGGACCGUCCCCUCGGUAAGGGCGAAUGGGACCCA [A16G U72G]
### Response 0 (no)

### Prompt State whether the measured self-cleavage reaches 0.4, counting equality as reaching it, for GGCCGGCAUGGUCCCAGCCUCCUCGGUGGCGCCGGCUGGGCAACAUUCCGAGGGGACCGCCCCCUCGGUAAUGGCGAAUGGGACCCA [C26G U60C]
### Response 1 (yes)

### Prompt State whether the measured self-cleavage reaches 0.4, counting equality as reaching it, for GGCCGGCAUGGUCCCAGCCUCCUCGCUAGCGCCGGCUGGGCAACAUUCCGAGGGGACCGUCCCGUCGGUAAUGGCGAAUGGGACCCA [G28A C64G]
### Response 0 (no)

### Prompt State whether the measured self-cleavage reaches 0.4, counting equality as reaching it, for GGCCGGCAUGGUCCCAGCCUCCUCGCUGGCGCCGGCUGGGCAACAUUCCGAGGGGACUGGCCCCUCGGUAAUGGCGAAUGGGACCCA [C58U U60G]
### Response 1 (yes)

### Prompt State whether the measured self-cleavage reaches 0.4, counting equality as reaching it, for GGCCGGCAUGCUCCCAGCCUCCUCGCUGGCGCCGGCUGGGCAAUAUUCCGAGGGGACCGUCCCCUCGGUAAUGGCGAAUGGGACCCA [G11C C44U]
### Response 0 (no)

### Prompt State whether the measured self-cleavage reaches 0.4, counting equality as reaching it, for GGCCGGCAUGGUCCCAGCCUCCUCGCUGGCGCCGGCUGGGCAACAUUCCGAGGGGACCGUCCCCUCCGUAAUGGCGAAUGCGACCCA [G67C G81C]
### Response 0 (no)

### Prompt State whether the measured self-cleavage reaches 0.4, counting equality as reaching it, for GGCCGGCAUGGUGCCAGCCUCCUCGCUGGCGCCGGCUGGGCAACAUUCCGAGGGGAACGUCCCCUCGGUAAUGGCGAAUGGGACCCA [C13G C57A]
### Response 0 (no)

### Prompt State whether the measured self-cleavage reaches 0.4, counting equality as reaching it, for GGCCGGCAUGGUCCCAGCCUCCUCGCGGGCGCCGGCUGGGCAACAUUCCGAGGGGACCGUCCCCUCGGUAAUGGCGACUGGGACCCA [U27G A78C]
### Response 1 (yes)
